# testTarget: Recombinant Human Anaplastic Lymphoma Kinase (Homo sapiens, UniProt Q9UM73)
# Construct: purchased Invitrogen, Carlsbad, Calif
# Sequence (Q9UM73 19-1620): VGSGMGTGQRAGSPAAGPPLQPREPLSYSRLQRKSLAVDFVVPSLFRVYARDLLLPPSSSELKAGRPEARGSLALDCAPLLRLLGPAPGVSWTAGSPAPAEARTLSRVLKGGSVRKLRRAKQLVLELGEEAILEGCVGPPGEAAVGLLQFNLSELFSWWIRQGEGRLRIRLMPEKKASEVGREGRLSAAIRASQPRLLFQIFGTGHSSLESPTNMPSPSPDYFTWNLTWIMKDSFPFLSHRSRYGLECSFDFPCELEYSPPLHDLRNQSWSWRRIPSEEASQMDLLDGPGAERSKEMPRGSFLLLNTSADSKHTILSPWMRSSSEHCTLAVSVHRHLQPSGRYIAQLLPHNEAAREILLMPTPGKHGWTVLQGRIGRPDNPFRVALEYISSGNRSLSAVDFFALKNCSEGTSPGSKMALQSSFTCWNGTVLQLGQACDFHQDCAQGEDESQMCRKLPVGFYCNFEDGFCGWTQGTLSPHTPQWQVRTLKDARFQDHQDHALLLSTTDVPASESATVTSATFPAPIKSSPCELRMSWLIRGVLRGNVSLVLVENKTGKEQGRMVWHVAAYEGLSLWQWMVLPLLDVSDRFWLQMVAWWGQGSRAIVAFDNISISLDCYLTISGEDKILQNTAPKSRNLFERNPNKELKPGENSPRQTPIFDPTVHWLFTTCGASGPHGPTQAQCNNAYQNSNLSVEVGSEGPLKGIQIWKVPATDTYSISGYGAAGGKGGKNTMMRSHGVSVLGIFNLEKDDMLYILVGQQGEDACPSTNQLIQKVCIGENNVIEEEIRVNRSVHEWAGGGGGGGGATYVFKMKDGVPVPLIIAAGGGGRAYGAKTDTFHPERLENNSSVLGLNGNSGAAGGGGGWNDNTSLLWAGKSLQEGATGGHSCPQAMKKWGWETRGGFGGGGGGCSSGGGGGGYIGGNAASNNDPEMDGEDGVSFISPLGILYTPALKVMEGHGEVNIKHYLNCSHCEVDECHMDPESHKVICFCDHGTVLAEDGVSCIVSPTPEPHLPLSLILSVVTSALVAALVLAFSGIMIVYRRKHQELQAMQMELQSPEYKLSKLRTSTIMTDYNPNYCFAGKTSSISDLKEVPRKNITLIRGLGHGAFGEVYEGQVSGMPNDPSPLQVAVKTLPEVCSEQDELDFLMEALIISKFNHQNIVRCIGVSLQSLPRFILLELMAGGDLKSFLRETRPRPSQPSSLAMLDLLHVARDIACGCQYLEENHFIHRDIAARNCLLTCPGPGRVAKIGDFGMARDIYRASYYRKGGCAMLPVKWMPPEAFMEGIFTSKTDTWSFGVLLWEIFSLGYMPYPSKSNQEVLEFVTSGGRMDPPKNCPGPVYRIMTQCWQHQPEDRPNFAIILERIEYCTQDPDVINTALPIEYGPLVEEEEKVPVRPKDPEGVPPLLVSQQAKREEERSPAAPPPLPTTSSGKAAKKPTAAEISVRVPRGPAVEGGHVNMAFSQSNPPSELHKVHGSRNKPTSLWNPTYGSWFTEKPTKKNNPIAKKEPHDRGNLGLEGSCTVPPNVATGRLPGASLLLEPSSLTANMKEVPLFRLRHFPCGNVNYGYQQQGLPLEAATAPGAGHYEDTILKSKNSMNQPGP
# testDescription: ALK HTRF kinase assay
# Format: biochemical
# testContext: Table B1; cells without percent sign
pIC50: −log10 of the molar value. Where a name gives a salt, the structure may show the parent alone.
outcomeMeasure: pIC50

Query N#Cc1cccc(NC(=O)Nc2ccc3cc2CCc2cccc(c2)Nc2ncc(Cl)c(n2)N3)c1 [Example B95, trifluoroacetate] yields pIC50 of < 6.00

Query Clc1ccc(CN2CCN(Cc3cc4cc(c3)Nc3nc(ncc3Cl)Nc3cccc(c3)CC4)CC2)cc1 [Example B199, tris(trifluoroacetate)] yields pIC50 of < 6.00

Query O=C(c1cc2cc(c1)Nc1nc(ncc1Cl)Nc1cccc(c1)CC2)N1CCCC(O)C1 (stereo not drawn) [Example B12, trifluoroacetate] yields pIC50 of < 5.00

Query O=C(Nc1ccc(Cl)cc1)Nc1ccc2cc1CCc1cccc(c1)Nc1ncc(Cl)c(n1)N2 [Example B86, trifluoroacetate] yields pIC50 of < 6.00

Query CC(C)(C)NS(=O)(=O)c1cc2cc(c1)Nc1nc(ncc1Cl)Nc1cccc(c1)CC2 [Example B16, trifluoroacetate] yields pIC50 of < 5.00

Query Cn1cncc1C(=O)Nc1cc2cc(c1)Nc1nc(ncc1Cl)Nc1cccc(c1)CC2 [Example B208, trifluoroacetate] yields pIC50 of < 6.00

###

# testTarget: human JAK1 (a.a. 837-1142) (Homo sapiens, UniProt P23458)
# Construct: human JAK1 (a.a. 837-1142); His tag (N); made in house; host or cells: insect cells (baculovirus)
# Sequence (P23458 849-1154): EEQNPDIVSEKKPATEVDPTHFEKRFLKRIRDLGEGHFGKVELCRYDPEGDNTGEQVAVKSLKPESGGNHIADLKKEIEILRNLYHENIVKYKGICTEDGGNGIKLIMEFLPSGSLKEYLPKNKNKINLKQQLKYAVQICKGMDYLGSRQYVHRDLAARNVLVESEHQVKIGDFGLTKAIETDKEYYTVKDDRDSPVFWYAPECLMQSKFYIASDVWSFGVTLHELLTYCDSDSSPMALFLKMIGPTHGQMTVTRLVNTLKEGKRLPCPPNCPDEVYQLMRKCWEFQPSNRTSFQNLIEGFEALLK
# testDescription: In vitro JAK kinase assay (HTRF, phosphorylation of a biotinylated peptide), JAK1
# Format: biochemical
# testContext: Table B1; read-out: JAK1 IC50
pIC50: −log10 of the molar value. Where a name gives a salt, the structure may show the parent alone.
Decide using pIC50: a value greater than or equal to 8 is criterion met, a smaller one is criterion not met.

Query: Form field: pIC50 at least 8? Entry: O=S(=O)(Nc1ccc2cc1CCc1cccc(c1)Nc1ncc(Cl)c(n1)N2)c1cccc(C(F)(F)F)c1 [Example B163, trifluoroacetate]
Response: criterion met

Query: Form field: pIC50 at least 8? Entry: O=C(Nc1ccc2cc1CCc1cccc(c1)Nc1ncc(Cl)c(n1)N2)N[C@H]1CCN(C(=O)c2ccno2)C1 [Example B230, trifluoroacetate]
Response: criterion met

Query: Form field: pIC50 at least 8? Entry: O=C(Nc1ccc2cc1CCc1cccc(c1)Nc1ncc(Cl)c(n1)N2)NC1CCCC1 [Example B88, trifluoroacetate]
Response: criterion met

Query: Form field: pIC50 at least 8? Entry: O=C(Nc1ccc2cc1CCc1cccc(c1)Nc1ncc(Cl)c(n1)N2)N[C@H]1CCN(C(=O)c2cccnc2)C1 [Example B171, bis(trifluoroacetate)]
Response: criterion met

Query: Form field: pIC50 at least 8? Entry: O=C(Nc1ccc2cc1CCc1cncc(c1)Nc1ncc(Cl)c(n1)N2)N1CCN(c2ccc(C(F)(F)F)cn2)CC1 [Example B301, tris(trifluoroacetate)]
Response: criterion not met

Query: Form field: pIC50 at least 8? Entry: O=C(c1cc2cc(c1)Nc1nc(ncc1Cl)Nc1cccc(c1)CC2)N1CCCC(O)C1 (stereo not shown) [Example B12, trifluoroacetate]
Response: criterion not met

Query: Form field: pIC50 at least 8? Entry: CCC(=O)Nc1ccc2cc1CCc1cccc(c1)Nc1ncc(Cl)c(n1)N2 [Example B54, trifluoroacetate]
Response: criterion met

Query: Form field: pIC50 at least 8? Entry: N#CC1(c2ccccc2)CCN(C(=O)Nc2ccc3cc2CCc2cncc(c2)Nc2ncc(Cl)c(n2)N3)CC1 [Example B322, bis(trifluoroacetate)]
Response: criterion not met

Query: Form field: pIC50 at least 8? Entry: O=S(=O)(Nc1ccc2cc1CCc1cccc(c1)Nc1ncc(Cl)c(n1)N2)c1ccc(C(F)(F)F)cc1 [Example B162, trifluoroacetate]
Response: criterion met

Query: Form field: pIC50 at least 8? Entry: O=[N+]([O-])c1ccc(CN2CCN(Cc3cc4cc(c3)Nc3nc(ncc3Cl)Nc3cccc(c3)CC4)CC2)cc1 [Example B194, tris(trifluoroacetate)]
Response: criterion not met

Query: Form field: pIC50 at least 8? Entry: CSc1ccccc1NC(=O)Nc1ccc2cc1CCc1cccc(c1)Nc1ncc(Cl)c(n1)N2 [Example B107, trifluoroacetate]
Response: criterion met
